ASSAY TEXT: qHTS for Inhibitors of human tyrosyl-DNA phosphodiesterase 1 (TDP1): qHTS in cells in absence of CPT; also: nearly all actives have a fitted effect of over 55% in size
EXPERIMENTAL PARAMETERS: DT40 Tdp1-/- hTDP1 cells, no CPT, ATP luminescence, 48 h
In all, about 420,000 compounds went through this assay and about 64,000 (15%) were called active. About 27% were inconclusive and are not listed. Calls follow the shape of the dose curve; as a rule, active = well fitted inhibition curve with a large enough effect; inconclusive = small, poorly fitted or top-dose-only effect; inactive = flat fitted curve, though single readings scatter. Not all results are given here.
Labels: 1 = active, 0 = inactive

>>> category("Cc1ccc2nc(NC(=O)c3nc(SCc4ccccc4F)ncc3Cl)sc2c1")
0
>>> category("Cc1cc([N+](=O)[O-])nn1CC(=O)Nc1ccc(Cc2ccncc2)cc1")
0
>>> category("CCCCCC(=O)Nc1ccc(S(=O)(=O)Nc2ccc(Cl)nn2)cc1")
0
>>> category("Cc1ccccc1-c1nc(SCC(=O)N(C)c2ccccc2)c2c(=O)n(C)c(=O)n(C)c2n1")
1
>>> category("Cn1nc([N+](=O)[O-])nc1Sc1ccc(C(C)(C)C)cc1")
0
>>> category("CC(NS(=O)(=O)c1ccc(Br)cc1)C(=O)NCC1CCCO1 (stereo not given)")
0
>>> category("CCCS(=O)(=O)c1ncc(Cl)c(C(=O)Nc2scc(-c3ccccc3)c2C(=O)OCC)n1")
1
>>> category("COc1cc(CNc2ncn[nH]2)ccc1OCc1ccccc1C")
0
>>> category("COc1ccc(C(CC(=O)Nc2ccc(C)cc2)NC(=O)C(F)(F)F)cc1 (stereo not given)")
0
>>> category("CCOC(=O)c1c(N)nn(C(=O)c2ccccc2)c1-c1ccccc1")
0

----------
ASSAY TEXT: qHTS for Inhibitors of human tyrosyl-DNA phosphodiesterase 1 (TDP1): qHTS in cells in absence of CPT; also: nearly all actives have a fitted effect of over 55% in size
EXPERIMENTAL PARAMETERS: DT40 Tdp1-/- hTDP1 cells, no CPT, ATP luminescence, 48 h
Screen size: about 420,000 compounds; about 64,000 (15%) were called active. Another 27% or so got no clear call; they are omitted. Calls come from the whole dose curve; as a rule, active = well fitted inhibition curve with a large enough effect; inconclusive = small, poorly fitted or top-dose-only effect; inactive = flat fitted curve, though single readings scatter. Only a sample is shown.
Labels: 1 (active), -1 (inactive)

>>> category("Cc1cccc(C(=O)NCCCN2CCCC2=O)c1")
-1
>>> category("NC(=O)NCCCC(=O)O")
-1
>>> category("CCOC(=O)c1ccc(NC(=O)Cn2cnc3cc(C)c(C)cc32)cc1")
1
>>> category("CCOC(=O)c1ccc(NC(=O)Cn2nnc(-c3ccc(C)cc3)n2)cc1")
-1
>>> category("Cc1nn(CCOc2ccccc2)c(=O)n1-c1ccccc1F")
-1
>>> category("O=C(Nc1ccc(OC(F)(F)F)cc1)c1ccc2c(c1)no[n+]2[O-]")
1
>>> category("COc1cccc(N2CCN(C3CC(=O)N(c4ccc(Cl)cc4)C3=O)CC2)c1 (configuration not stated)")
-1
>>> category("CC(C)(C)OC(=O)N1CCC(C(=O)Nc2cccc(C(=O)NCCc3ccccc3)c2)CC1")
1
>>> category("CN1C(=O)C2(OCCCO2)c2cc(Cl)ccc21")
-1
>>> category("O=C1CC2(CCCCC2)Oc2ccc(OCC(=O)N3CCOCC3)cc21")
-1
>>> category("C/C(=N\\NC(=O)c1cccc([N+](=O)[O-])c1)c1cccnc1")
-1
>>> category("COC(=O)[C@H](C)NC(=O)Nc1ccc(OC(F)(F)F)cc1")
-1
